Tested on: BMX
STATED_CONDITIONS: concentration: 1 μM, replicates: in singlicate; n = 1;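 also: KINOMEscan kinase panel screen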
OUTCOME_MEASURE: %Inh
Hi, when you answer, please include the unit after the number. Thanks!

IN: Specify %Inh for Cl.Cn1ccc(-c2cccc(Nc3ccnc4cc(-c5nccs5)ccc34)c2)n1 [GW525701] and stop.
OUT: 0%

IN: Specify %Inh for COc1ccc(-c2oc3ncnc(N)c3c2-c2ccc(OC)cc2)cc1 [SB-589132] and stop.
OUT: 0%

IN: Specify %Inh for OCCOCCn1ccc2ncnc(Nc3ccc(Oc4cccc(Cl)c4)c(Cl)c3)c21 and stop.
OUT: 13%

IN: Specify %Inh for Cn1ccc2ncnc(Oc3ccc(NC(=O)Nc4cccnc4)c(Cl)c3)c21 and stop.
OUT: 0%

IN: Specify %Inh for CNc1nccc(-c2c(-c3ccc(F)cc3)ncn2CCCN2CCOCC2)n1 [SB-222516] and stop.
OUT: 3%

IN: Specify %Inh for Cc1ccc(O)cc1Nc1cc(C(F)(F)F)nc2ccc(-c3ccncc3)cc12 [GW630823] and stop.
OUT: 17%

IN: Specify %Inh for COc1ccc(NC(=O)c2ccc(-c3cc(-c4nnc(C)o4)ccc3C)cc2)cc1 [GW595885] and stop.
OUT: 10%

IN: Specify %Inh for Cl.O=S(=O)(c1cccc(F)c1)c1ccc(Nc2ncnc3cc(Br)sc23)cc1Cl [GSK306886] and stop.
OUT: 15%

IN: Specify %Inh for COC(=O)c1cccc(NC(=O)NCCNc2ccnc(Nc3ccc(F)cc3)n2)c1 [GSK1379883] and stop.
OUT: 21%

IN: Specify %Inh for Clc1cccc(-c2nc(Nc3ccncc3)c3ccccc3n2)c1 [GW873004] and stop.
OUT: 43%

IN: Specify %Inh for Nc1nc(-c2cccnc2)c(-c2ccnc3ccccc23)s1 [GW684083] and stop.
OUT: 34%

IN: Specify %Inh for O=C(NCCCN1CCCC1=O)c1cnc(NCc2cc(Cl)ccc2Cl)nc1NC1CCNCC1 and stop.
OUT: 0%

IN: Specify %Inh for Oc1ccc2ncnc(Nc3ccc(OCc4ccccc4)cc3)c2c1 [GI262866] and stop.
OUT: 0%

IN: Specify %Inh for CN1c2ccc(-c3ccc(C(=O)NCCO)cc3)cc2-c2[nH]ncc2S1(=O)=O and stop.
OUT: 13%

IN: Specify %Inh for FC(F)(F)c1cc(Nc2nccc(-c3c(-c4ccc(Cl)cc4)nn4ncccc34)n2)ccc1Cl [GW829351] and stop.
OUT: 0%

----------
Provide the recorded %Inh for the entries that follow.
Tested on: DCAMKL3
Construct: gene DCLK3
STATED_CONDITIONS: concentration: 1 μM, replicates: in singlicate; n = 1
Dear colleague, please return just the value in %, with no unit written.

IN: Specify %Inh for Nc1nc(-c2ccccn2)c(-c2ccnc3ccccc23)s1 [GW548057] and stop.
OUT: 6

IN: Specify %Inh for Cl.c1ccc(Cn2ccc3cc(Nc4ncnc5ccccc45)ccc32)cc1 [GW275568] and stop.
OUT: 2

IN: Specify %Inh for O=C(Nc1n[nH]c2nc(-c3ccco3)c(Br)cc12)c1ccc(CN2CCCC2)cc1.O=C(O)[C@H](O)[C@@H](O)C(=O)O [SB-742352] and stop.
OUT: 28

IN: Specify %Inh for O=C(Nc1ccccc1)Nc1ccc(Oc2ccc3nccn3n2)cc1 and stop.
OUT: 59

IN: Specify %Inh for COc1ccc(Nc2nccc(N3CCC(NC(=O)c4cccc(NC(C)=O)c4)C3)n2)cc1 (stereo not drawn) [GSK1379732] and stop.
OUT: 7

IN: Specify %Inh for FC(F)(F)c1ccc(-c2nn3ncccc3c2-c2ccnc(Nc3cccc(C(F)(F)F)c3)n2)cc1 [GW828205] and stop.
OUT: 22

IN: Specify %Inh for Cn1ccc2ncnc(Oc3ccc(NC(=O)Nc4cccnc4)c(Cl)c3)c21 and stop.
OUT: 0

IN: Specify %Inh for O=C(Nc1ccccc1F)NC1CCN(c2ccnc(Nc3ccc(F)cc3)n2)C1 (stereo not drawn) [GSK1379722] and stop.
OUT: 5

IN: Specify %Inh for Cc1ccc(O)cc1Nc1cc(C(F)(F)F)nc2ccc(-c3ccncc3)cc12 [GW630823] and stop.
OUT: 15

IN: Specify %Inh for CS(=O)(=O)CCNCc1nc(-c2ccc3ncnc(Nc4ccc(OCc5cccc(F)c5)c(Cl)c4)c3c2)cs1.Cl [GW583340] and stop.
OUT: 0

IN: Specify %Inh for Fc1ccc(Nc2nccc(-c3c(-c4ccc(Cl)cc4)nn4ncccc34)n2)cc1F [GW829058] and stop.
OUT: 0

IN: Specify %Inh for Cl.c1ccc(Cn2ncc3cc(Nc4ncnc5ccccc45)ccc32)cc1 [GW273749] and stop.
OUT: 0

IN: Specify %Inh for OCCOCCn1ccc2ncnc(Nc3ccc(Oc4cccc(Cl)c4)c(Cl)c3)c21 and stop.
OUT: 0

IN: Specify %Inh for Cn1cc(-c2ccc3c(c2)CCN3C(=O)Cc2cccc(C(F)(F)F)c2)c2c(N)ncnc21 [GSK2606414] and stop.
OUT: 0

IN: Specify %Inh for CC(C)(C)c1ccc(-n2cnc3c(N)ncnc32)cc1 [SKF-97263] and stop.
OUT: 0

IN: Specify %Inh for Cc1cc(N2CCC(NS(=O)(=O)c3ccc(F)cc3)CC2)nc(Nc2cccc(C#N)c2)n1.O=C(O)C(F)(F)F [GSK1653537] and stop.
OUT: 0

IN: Specify %Inh for Oc1ccc2ncnc(Nc3ccc(OCc4ccccc4)cc3)c2c1 [GI262866] and stop.
OUT: 0

IN: Specify %Inh for Nc1n[nH]c2nnc(-c3ccccc3)cc12 [SB-517389] and stop.
OUT: 29

Attribution: paper PMC5540273
